Please provide measured growth for the entries that follow.
tested on: TK-10 renal; assay: NCI-60 one-dose screen, 48 h (100 = growth as untreated, 0 = no growth, -100 = all killed); conditions: 10 µM
The panel holds about 83,000 compounds, 20% with a hit somewhere; the sample as a whole holds those more often.
Give bare numbers, in %.

COc1ccc(C2=Nc3c(C)nn(-c4ccccc4)c3NC(c3ccc(Oc4ccnc5cc(Cl)ccc45)c(OC)c3)C2)cc1 (configuration not stated)    129

Answer for every listed entry: what is its growth? The entries follow.
1. CCc1ccc2c(c1)N(CCO)C1=C(C(=O)OC1)C2c1ccccc1 (configuration not stated)
2. CN(C)c1ccc(-c2cc(-c3cccc(NS(C)(=O)=O)c3)nc(N)c2C#N)cc1
3. COc1ccc(/C=C2/CN(C(=O)c3ccc(C)cc3)C/C(=C\c3ccc(OC)cc3)C2=O)cc1

1. 91.8
2. 42.1
3. 113

Answer for every listed entry: what is its growth? The entries follow.
1. CCOC(=O)C(CSC(c1ccccc1)(c1ccccc1)c1ccccc1)NC(=O)C(CSC(c1ccccc1)(c1ccccc1)c1ccccc1)NC(c1ccccc1)(c1ccccc1)c1ccccc1 (configuration not stated)
2. CCC(=O)N1C/C(=C/c2ccc(OC)cc2)C(=O)/C(=C/c2ccc(OC)cc2)C1
3. Clc1ccccc1N=Cc1ccc2c(c1)OCO2
4. C=C(C(=O)c1ccccc1)C(NC(C)(C)C)c1ccccc1 (configuration not stated)
5. O=[P@@]1(c2ccccc2)O[C@H](COCc2ccccc2)[C@@H](OCc2ccccc2)[C@H](OCc2ccccc2)[C@H]1O
6. C#Cc1ccc(-n2c(/C=C/c3ccc(C(F)(F)F)cc3)nc3ncccc3c2=O)cc1

1. 118
2. 70.3
3. 107
4. 9.63
5. 76
6. 11.4

Answer for every listed entry: what is its growth? The entries follow.
1. CCCCCCN1C(=O)C2=C(c3ccc(Cl)cc3)Nc3c(c(C)nn3-c3ccccc3)C2c2ccccc21 (configuration not stated)
2. COc1ccc(NC2=NC(C)(CO)CS2)cc1 (configuration not stated)

107
110

Answer for every listed entry: what is its growth? The entries follow.
1. O=C(Cc1csc2nc(-c3ccc(Cl)cc3)cn12)N/N=C/c1ccccc1O
2. Oc1[nH]c2ccc(Cl)cc2c1/C=c1/ccc2c(c1)N=C(c1cc(F)cc(F)c1)N=2

[57.1, 100]

Answer for every listed entry: what is its growth? The entries follow.
1. C#Cc1ccc(-n2c(/C=C/c3cc(OC)cc(OC)c3)nc3ncccc3c2=O)cc1
2. COc1ccc(-c2nn(-c3cccc(NC(=O)c4ccc5c(c4)OCCO5)c3)cc2-c2ccncc2)cc1Cl

1. 81.6
2. 36.2

Answer for every listed entry: what is its growth? The entries follow.
1. COC(=O)c1c(-c2ccccc2)csc1NC(=O)c1c(-c2ccccc2)noc1C
2. CCN1CCC2(CC1)OC(c1ccccc1)C(c1ccccc1)O2 (configuration not stated)
3. C(CCCC1=NCCO1)CCCC1=NCCO1
4. CCCC(F)C(=O)O (configuration not stated)

1: 55.9; 2: 103; 3: 110; 4: 98

Answer for every listed entry: what is its growth? The entries follow.
1. CCOC(=O)C1(CC(C)C)CCOC1=O (configuration not stated)
2. S=c1[nH]ccn1-c1c(Cl)cccc1Cl
3. O=C1/C(=C\c2ccc(Cl)cc2)CN(C(=S)Nc2ccccc2)C/C1=C\c1ccc(Cl)cc1
4. Clc1ccc(Nc2ccnc(NCCCNc3ccnc4cc(Cl)ccc34)n2)cc1
5. N=C(N)c1ccc(-c2ccc(-c3ccccc3)o2)nc1
6. c1ccc([C@H]2CN3CCSC3=N2)cc1
7. CC(=O)N1N=C(c2ccc(Cl)cc2)CC1c1sc(Cl)nc1Cl (configuration not stated)
8. ClC(Cl)(Cl)c1nc2nccnc2[nH]1

[106, 112, -60.5, -82.9, 111, 112, 68.8, 119]

Answer for every listed entry: what is its growth? The entries follow.
1. COc1ccc(OC)c(NC(=O)c2sc3nc4c(cc3c2N)C(=O)CCC4)c1
2. COc1ccc(-c2nc3sccn3c2-c2nc3c([nH]2)C(=O)c2ccccc2C3=O)cc1
3. CO/N=C(/C(=O)NC1C(=O)N2C(C(=O)O)=C(COC(N)=O)CSC12)c1ccco1 (configuration not stated)
4. COc1cc2nc(Nc3cccc(NC(C)=O)c3)nc(N)c2cc1OC
5. COc1cc(-c2nc(-c3nnc(-c4ccccc4Cl)o3)c3ccccn23)cc(OC)c1OC
6. O=[N+]([O-])c1cccc(-c2ncc(-c3ccc(Cl)cc3Cl)[nH]2)c1
7. CCOC(=O)C(=Cc1ccc(Br)cc1)C(=O)OCC
8. COc1cc(-c2cc(/C=C3\C(=O)Nc4ccc(Cl)cc43)[nH]n2)cc(OC)c1OC

1: 98; 2: 111; 3: 104; 4: 150; 5: 106; 6: 20.1; 7: 8.18; 8: 27.5

* * *

system: COLO 205 colon; test: NCI-60 one-dose screen, 48 h (100 = growth as untreated, 0 = no growth, -100 = all killed); conditions: 10 µM
This is part of a sample that, as a whole, favours compounds with a hit. Of some 83,000 tested, about 20% had one in any assay.
Assay Readout: growth (%)
Give bare numbers, in %.

Some solved entries appear below for comparison.
COc1ccc(C2CC(c3ccc(N(C)C)cc3)=NN2c2ccc(S(N)(=O)=O)cc2)cc1 (centres undefined)    55.4
COc1cc(-c2cc(/C=C3\C(=O)Nc4ccc(Cl)cc43)[nH]n2)cc(OC)c1OC    11.4
O=C(Nc1cccc(-n2cc(-c3ccncc3)c(-c3ccc(O)c(Cl)c3)n2)c1)c1ccc(Cl)c(Cl)c1    102

Answer for every listed entry: what is its growth? The entries follow.
1. O=C(Nc1cccc(-n2cc(-c3ccncc3)c(-c3cc(O)cc(Cl)c3)n2)c1)c1ccc(N2CCOCC2)c(C(F)(F)F)c1
2. CN(C)C(=S)N/N=C\C=N/NC(=S)N(C)C
3. NC(=O)c1ccc(-c2cccc3c(=O)nc(N4CCOCC4)oc23)cc1
4. COc1ccc2c(c1)O/C(=C\c1ncc([N+](=O)[O-])n1C)C2=O
5. N#Cc1cccc(OCc2nc(N)nc(N)c2-c2ccc(Cl)c(Cl)c2)c1
6. O=C1/C(=C\c2ccc(F)cc2)CN(C(=O)c2ccccc2)C/C1=C\c1ccc(F)cc1

1. 80.5
2. -1.67
3. 104
4. -49.2
5. 34.1
6. 50.9

* * *

system: UACC-62 melanoma; experiment: NCI-60 one-dose screen, 48 h (100 = growth as untreated, 0 = no growth, -100 = all killed); conditions: 10 µM
This is part of a sample that, as a whole, favours compounds with a hit. Of some 83,000 tested, about 20% had one in any assay.
Would you mind classing the entries by growth? Ranges: lo (below 50%), med (50% to below 90%), hi (90% or more)

Cc1cc2ccccc2nc1-c1ccccc1F    hi

Returns: class label. Input: Cc1cccc(NC2=C(C#N)C(=O)NC3(CCCC3)S2)c1
hi

Returns: class label. Input: COc1ccc(-c2nc3ncccn3c2-c2nnc(-c3ccsc3C)o2)cc1
med

Returns: class label. Input: COc1ccc(N=C2C(=Nc3ccc(OC)cc3)N(c3ccc(N(C)C)cc3)C(=S)N2c2ccc(OC)cc2)cc1
hi

Returns: class label. Input: COc1cccc(-c2cc(-c3cccc(NS(C)(=O)=O)c3)nc(N)c2C#N)c1O
med

Returns: class label. Input: C=C(Cl)[C@@](Cl)(CBr)CC[C@@H](Br)C(C)(C)Cl
lo

Returns: class label. Input: O=C1/C(=C\c2ccc(Br)cc2)CN(C(=O)c2ccccc2F)C/C1=C\c1ccc(Br)cc1
lo

Returns: class label. Input: O=C1OCC2=C1C(c1cccc(Br)c1)c1cc3c(cc1N2CCO)CCC3 (stereo not given)
lo

* * *

test system: HOP-62 NSCLC; assay: NCI-60 one-dose screen, 48 h (100 = growth as untreated, 0 = no growth, -100 = all killed); details: 10 µM
The panel holds about 83,000 compounds, 20% with a hit somewhere; the sample as a whole holds those more often.
Assay Readout: growth (%)
One number for each entry, in %.

Some solved entries appear below for comparison.
O=[N+]([O-])c1ccc(N/N=C/c2cccc3ccccc23)nc1    110
CCCCN(CCCC)c1cc(C(=O)CCCCCN)c2ccccc2n1    110

Answer for every listed entry: what is its growth? The entries follow.
1. Cc1ncc(-c2ccoc2)c(NC2CCCCCC2)n1
2. CSCCCNC(=O)c1ccc2c(c1)/C(=C/c1[nH]c(C)cc1C)C(=O)N2
3. COc1ccc(NC2=NC(C)(CO)CS2)cc1 (stereo unspecified)
4. C[C@]12CC[C@@H]3c4ccc(O)cc4C[C@@H](O)[C@H]3[C@@H]1CC[C@@H]2O

1: 102; 2: 35.5; 3: 94.6; 4: 108
